Test system: CD2F1 mice, L1210 leukemia ip, survival T/C
experimentalDetails: NCI In Vivo Anticancer Drug Screen. Data for tumor model L1210 Leukemia (intraperitoneal) in CD2F1 (CDF1) mice
runConditions: endpoint: mean survival time; dose: 75.0 mg/kg/injection; schedule: Q04DX003 (ip); vehicle: saline; higher = longer survival
Protocol: The antitumor activity of compounds was measured in mice bearing transplantable tumors. Survival or tumor size were measured and the results are expressed as the measurement made in the treated group (T) divided by the measurement made in the vehicle treated control group (C). The tumor model used in this assay is L1210 Leukemia (intraperitoneal) in CD2F1 (CDF1) mice
Toxic doses and inconclusive results are not listed.
Entries annotated with measured T/C

Look over these answered cases.
{"molecule": "O=S1(=O)OCCCC1=C(c1ccccc1)c1ccccc1", "readoutName": "T/C", "reading": "101 % of control"}
{"molecule": "CCOC(=O)CC1CCCCC1CC(=O)OCC (centres undefined)", "readoutName": "T/C", "reading": "97 % of control"}
{"molecule": "C1N2CN3CN1CN(C2)C3.[Cl][Pt+2][Cl]", "readoutName": "T/C", "reading": "101 % of control"}

For CCCCCCCCCCNCCC(=O)O the molecule record lists T/C as 94 % of control

----------
Test system: CD2F1 mice, L1210 leukemia ip, survival T/C
experimentalDetails: NCI In Vivo Anticancer Drug Screen. Data for tumor model L1210 Leukemia (intraperitoneal) in CD2F1 (CDF1) mice
runConditions: endpoint: mean survival time; dose: 200.0 mg/kg/injection; schedule: Q01DX009 (ip); vehicle: saline with Tween-80; higher = longer survival
Toxic doses and inconclusive results are not listed.
readoutName: T/C

Recorded T/C, per entry:
{"molecule": "CCCCCCCCCC(=O)Nc1ccc(C(=O)OCC)cc1", "T/C": "97 % of control"}
{"molecule": "O[O][Sn][c]1ccccc1", "T/C": "91 % of control"}
{"molecule": "CC(=O)NNC(=O)c1ccc2ccccc2n1", "T/C": "111 % of control"}

T/C reading for C(=C\c1ccc2ccccc2n1)/c1ccc2c(c1)OCO2 : 96 % of control

Recorded result, Clc1ccc2nc(C(Cl)(Cl)Cl)nc(NCCN3CCCCC3)c2c1 , T/C: 97 % of control

----------
Quick reference for T/C among some molecules
Tested on: CD2F1 mice, L1210 leukemia ip, survival T/C
experimentalDetails: NCI In Vivo Anticancer Drug Screen. Data for tumor model L1210 Leukemia (intraperitoneal) in CD2F1 (CDF1) mice
runConditions: endpoint: mean survival time; dose: 100.0 mg/kg/injection; schedule: Q01DX009 (ip); vehicle: other; higher = longer survival
Toxic doses and inconclusive results are not listed.

// solved cases for T/C follow
{"molecule": "Cc1cccc(NC(=S)NC(=O)c2ccccc2)n1", "T/C": "88 % of control"}
{"molecule": "O=C(CC(O)(C(F)(F)F)C(F)(F)F)c1ccc([N+](=O)[O-])cc1", "T/C": "97 % of control"}
{"molecule": "FC(F)=C(F)I", "T/C": "103 % of control"}

The reported value for Oc1ccc(I)cc1 in terms of T/C is 96 % of control

----------
Tested on: CD2F1 mice, L1210 leukemia ip, survival T/C
experimentalDetails: NCI In Vivo Anticancer Drug Screen. Data for tumor model L1210 Leukemia (intraperitoneal) in CD2F1 (CDF1) mice
runConditions: endpoint: mean survival time; dose: 100.0 mg/kg/injection; schedule: Q01DX009 (ip); vehicle: saline; higher = longer survival
Toxic doses and inconclusive results are not listed.
Reported T/C values for the following molecules.

Some solved entries appear below for comparison.
{"molecule": "COC(CCCl)c1ccc(Cl)cc1 (centres undefined)", "T/C": "96 % of control"}
{"molecule": "CCOC(=O)CO", "T/C": "93 % of control"}
{"molecule": "O=C(O)C1C2OC(C(Br)C2Br)C1C(=O)O (centres undefined)", "T/C": "104 % of control"}
{"molecule": "C=CCOCC(O)CN1CCCCC1 (centres undefined)", "T/C": "96 % of control"}
{"molecule": "c1ccc2c(c1)-c1nc3ccccc3cc1C2N1CCCCC1 (centres undefined)", "T/C": "105 % of control"}

Lookup result for CCN(CC)CCOC(=O)c1ccccc1Nc1cccc(C)c1 ; measured T/C: 97 % of control

Just so you know, measured T/C for CC(C)NCC(O)c1ccc(O)c(O)c1 (centres undefined) came out at 108 % of control

What the record says about COc1cc(C[C@H]2c3cc(OC)c(OC)cc3CCN2C)c(Oc2cc3c(cc2OC)-c2c(OC)c(OC)cc4c2[C@H](C3)N(C)CC4)cc1OC : T/C is 94 % of control

Measured T/C, FC(F)(F)c1nn[nH]n1 : 100 % of control

Entry NC(CCc1cc(O)ccc1O)C(=O)O (centres undefined) ; T/C = 98 % of control
